# System: MT4
# run_description: Antiviral activity against MT-4 cells infected with Nev-R strain of HIV-1
# test_parameters: Homo sapiens
measurement_kind: pIC50
Quick note: pIC50 means taking -log10 of the concentration in moles per liter.

Sample records with pIC50:
structure_as_smiles | pIC50
O=C1Nc2ccc(Cl)cc2[C@@](C#CC2CC2)(C(F)(F)F)O1 | 8.57
CC(C)Nc1cccnc1N1CCN(C(=O)c2cc3cc(NS(C)(=O)=O)ccc3[nH]2)CC1 | 5.62

Consider the additional compound presented here.
Log: MT4, compound Cc1ccnc2c1NC(=O)c1cccnc1N2C1CC1 , pIC50 = 4.76

---

# Tested on: Human immunodeficiency virus 1
# run_description: Antiviral activity against Y181C strain of HIV-1
# Type: functional, organism-based
measurement_kind: IC50 (µM)
Return type: number; implicit unit µM.

compound | recorded_number
Cc1ccnc2c1NC(=O)c1cccnc1N2C1CC1 [NEVIRAPINE] | 9.4

IC50 for CC(C)Nc1cccnc1N1CCN(C(=O)c2cc3cc(NS(C)(=O)=O)ccc3[nH]2)CC1 [DELAVIRDINE] is 2.3

---

# Tested on: Human immunodeficiency virus 1
# run_description: Antiviral activity against V108I/Y181C strain of HIV-1
# Type: functional, organism-based
pIC50: −log10 of the molar value.
The following molecules are shown together with reported pIC50 values.

molecule | pIC50
Cc1ccnc2c1NC(=O)c1cccnc1N2C1CC1 [NEVIRAPINE] | < 5.00

pIC50 for CC(C)Nc1cccnc1N1CCN(C(=O)c2cc3cc(NS(C)(=O)=O)ccc3[nH]2)CC1 [DELAVIRDINE] is < 5.00
